Biological target: human GLP-1 receptor (human, UniProt P43220 24-463)
Assay: cell-based or functional assay
Numbered stars: 1 amine (or outer) side, 2 acyl side, 3 side chain; on linkers, the order of the positions; unused ones are H or OH. Square brackets hold non-standard residues; d marks the D form. Side chains are listed from the residue outwards. Ends that are not written are not given here. * marks the point of attachment. Dodecanoyl(12-OPh(4-COOH)) = O=C(O)c1ccc(OCCCCCCCCCCCC(=O)*)cc1; Undecanoyl(11-OPh(4-COOH)) = O=C(O)c1ccc(OCCCCCCCCCCC(=O)*)cc1; γGlu = O=C(O)[C@H](CCC(=O)[*:2])N[*:1]; εLys = N[C@@H](CCCCN[*:1])C(=O)[*:2]; AEEA = NCCOCCOCC(=O)O; Aib = CC(C)(N)C(=O)O
Readout Kind: EC50/pM (1% HSA), In vitro potency (CRE luciferase)
Mention the unit after the number when you answer.

Worked examples follow.
Binder: H[Aib]EGTFTSDVSSYLEEQAAK([εLys-γGlu-γGlu-Undecanoyl(11-OPh(4-COOH))])EFIEWLVRGRK([εLys-γGlu-γGlu-Undecanoyl(11-OPh(4-COOH))])
Test Result: 391 pM
//
Binder: HXEGTFTSDVSSYLEGQAAKEFIAWLVHGRK (Aib at 8; Lys 26 and Lys 37 each acylated at the epsilon-amino group with the side chain given in the name (numbering of GLP-1(7-37), His = 7))
Test Result: 80 pM
//
Binder: HXEGTFTSDVSSYLEGQAAKEFIAWLVQGRK (Aib at 8; Lys 26 and Lys 37 each acylated at the epsilon-amino group with the side chain given in the name (numbering of GLP-1(7-37), His = 7))
Test Result: 633 pM
//
Binder: H[Aib]EGTFTSDVSSYLEEQAAK([εLys-AEEA-AEEA-γGlu-Dodecanoyl(12-OPh(4-COOH))])EFIAWLVRGRK([εLys-AEEA-AEEA-γGlu-Dodecanoyl(12-OPh(4-COOH))])
Test Result: 141 pM

Moving on to the next binder.
QUERY: Could you tell me which EC50/pM (1% HSA), In vitro potency (CRE luciferase) is on file for `H[Aib]EGTFTSDVSSYLEEQAAK([εLys-AEEA-AEEA-γGlu-Undecanoyl(11-OPh(4-COOH))])EFIAWLVRGRK([εLys-AEEA-AEEA-γGlu-Undecanoyl(11-OPh(4-COOH))])` ?
RESULT: 70 pM

Origin of the recorded values: patent US10000542
